src = the NIST ThermoML archive (doi:10.1016/j.fluid.2006.03.015)

test: molar heat capacity at constant pressure; conditions: 338.15 K; 101.33 kPa; Liquid; modulated-temperature differential scanning calorimetry MDSC
Field: molar heat capacity at constant pressure. Provide a value for each of the compounds that follow.
Write the number in J/K/mol without appending the unit.

Which molar heat capacity at constant pressure is reported for this compound? CCCCCCn1cc[n+](C)c1.O=S(=O)([O-])C(F)(F)F [1-hexyl-3-methylimidazolium trifluoromethanesulfonate]
524

Would you mind telling me what molar heat capacity at constant pressure value was observed for CCCCCC[n+]1ccn(C)c1.O=S(=O)([N-]S(=O)(=O)C(F)(F)F)C(F)(F)F ?
688

Returns the measured molar heat capacity at constant pressure for the input compound. Input: CCn1cc[n+](C)c1.O=S(=O)([O-])C(F)(F)F [1-ethyl-3-methylimidazolium trifluoromethanesulfonate]
397
